The following compounds are listed with their measured IC50 values.
- Tgt: pseudo-kinase domain (JH2, amino-acids 536-812) of human Wild Type JAK2 (Homo sapiens, UniProt O60674, F794H/W659A/W777A)
- Construct: pseudo-kinase domain (JH2, amino-acids 536-812 with 3 surface mutations W659A, W777A, F794H)
- Sequence (O60674 536-812 W659A/W777A/F794H): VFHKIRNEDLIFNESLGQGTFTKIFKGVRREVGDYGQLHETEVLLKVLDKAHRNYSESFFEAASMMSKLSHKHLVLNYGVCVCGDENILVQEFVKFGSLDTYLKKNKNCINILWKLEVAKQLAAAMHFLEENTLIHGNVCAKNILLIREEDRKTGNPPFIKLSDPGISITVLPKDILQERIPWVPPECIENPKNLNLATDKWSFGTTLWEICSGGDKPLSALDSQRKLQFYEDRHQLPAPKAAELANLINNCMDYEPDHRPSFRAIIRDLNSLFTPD
- Method: JAK2 LanthaScreen JH2-WT Binding Assay
- Condition parameters: 1 hour at 25° C.
- Protocol: Example B. JAK2 LanthaScreen JH2-WT Binding Assay JAK2 JH2-WT binding assay utilizes pseudo-kinase domain (JH2, amino-acids 536-812 with 3 surface mutations W659A, W777A, F794H) of human Wild Type JAK2 expressed as C-terminal His-Avi-tagged, biotinylated protein in a baculovirus expression system (BPS Bioscience, Catalog #79463). […] After incubation for 1 hour at 25° C., LanthaScreen signals were read on a PHERAstar FS plate reader (BMG LABTECH). […]
Where a name gives a salt, the structure may show the parent alone.
Value kind: IC50

CN1C(=O)[C@]2(CC[C@@H](NS(=O)(=O)C3CC3)C2)c2c1cnc1[nH]c(-c3cnn(C)c3)c(-c3ccc4c(cnn4C)c3)c21 (racemic) [Example 55, trifluoroacetate salt] = ≤ 100 nM
CN(C)C(=O)N1CCC2(CC1)CC1(C2)C(=O)N(C)c2cnc3[nH]c(-c4cnn(C)c4)c(-c4ccc5c(cnn5C)c4)c3c21 [Example 60, trifluoroacetate salt] = ≤ 100 nM
[2H]C([2H])([2H])n1ncc2cc(-c3c(-c4cnn5c4CCC5)[nH]c4ncc5c(c34)C3(CCN(C4(CC#N)CCCC4)CC3)C(=O)N5C)ccc21 = ≤ 100 nM

Hello, the source for this data is patent US11958861B2, in case you need it.
